experiment: NCI Yeast Anticancer Drug Screen. Data for the wt1 strain (AID 149);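 also: 0% = growth of vehicle-treated wt1 cultures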; details: S. cerevisiae wt1 strain (SPY 50644) growth inhibition; at 33.0 µM
This is part of a sample that, as a whole, favours compounds with a hit. Of some 79,000 tested, about 15% had one in any assay. Activity calls are given as the source filed them. Rule as the data show it: active = growth inhibition above about 70%; inactive = the rest.
Answer with one of the outcomes given here: active, inactive

CC(C)=CCc1c2c(c(O)c3c(=O)c(-c4ccc(O)c(O)c4)coc13)C=CC(C)(C)O2	active
O=[N+]([O-])c1ccc(S(=O)(=O)Cc2ccccc2)c([N+](=O)[O-])c1	active
Cc1cc(C)c2[s+]snc2c1	inactive
CCOP(=O)(OCC)/C(C#N)=C/c1cccc(Oc2ccccc2)c1	active
NC(=S)N/N=C1\c2ccccc2CCC1CCC1(O)CCc2ccccc2C1=O (centres undefined)	inactive

Query :: Hey, what did the test say about O=C(O)c1cc2c(cc1S(=O)(=O)O)C1C(C3C2C2(Cl)C(Cl)=C(Cl)C3(Cl)C2(Cl)Cl)C2(Cl)C(Cl)=C(Cl)C1(Cl)C2(Cl)Cl (centres undefined) ?
Result :: inactive

Query :: # repeat for `CC(C)C(c1ccccc1)c1ccccc1`
Result :: inactive

Query :: # repeat for `O=C1C[C@H]2[C@H](c3ccc(Br)cc3)[C@H]3C(=O)c4ccccc4NC(=O)[C@@H]3[C@@]2(O)c2ccccc2N1`
Result :: inactive

* * *

Experiment: NCI Yeast Anticancer Drug Screen. Data for the rad50EPP+ strain (AID 151);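 also: 0% = growth of vehicle-treated control cultures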
Details: S. cerevisiae rad50 mutant strain, at 3.7 µM, active compounds read high
Protocol: Growth inhibition of yeast strains with defined genetic alterations is measured as a screen for potential anti-cancer activity. Selected strains with alterations in DNA damage repair or cell cycle control were exposed to compounds and growth inhibition was measured relative to vehicle treated controls. The strain used in this assay is rad50EPP+
The panel holds about 79,000 compounds, 15% with a hit somewhere; the sample as a whole holds those more often.
readout_name: growth inhibition (%)
Give just the number in %; leave the unit off.

O=C(NC(N1CCN(c2cc3c(cc2F)c(=O)c(C(=O)O)cn3C2CC2)CC1)(C(F)(F)F)C(F)(F)F)c1ccccc1	-1
O/N=c1/ccn(O)c2ccccc12	96
CC(=O)O[C@H]1CC[C@@]2(C)C(=CC[C@@H]3C2CC[C@]2(C)C(=O)NC(=O)CC32)C1 (some centres undefined)	0

Query :: Suppose we examine the compound `CCCCCCNCCCNc1c2ccccc2nc2cccc([N+](=O)[O-])c12` ; what growth inhibition value has been reported?
Result :: 5

* * *

Below, each entry is listed with its recorded growth inhibition.
test: NCI Yeast Anticancer Drug Screen. Data for the cln2 rad14 strain (AID 165);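 also: 0% = growth equal to vehicle treated cultures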; conditions: S. cerevisiae cln2 rad14 strain, at 5.0 µM (retest, dose inferred, filed as 0.5), active compounds read high
Compounds without any hit were thinned out: in the full panel of roughly 79,000, 15% have a hit.
Give just the number in %; leave the unit off.

Take a look at these entries with their results.
NC(=S)N1N=C2c3ccccc3CC[C@@H]2[C@@H]1c1ccccc1	-4
CCCCCCCCN1COCC(COc2ccccc2C)OC1 (stereo not given)	20
CCOC(=S)SSSC(=S)OCC	1

Query :: Suppose we examine the compound `CC(C)N(CCCNc1c2ccccc2nc2cccc([N+](=O)[O-])c12)C(C)C` ; what growth inhibition value has been reported?
Result :: 97

Query :: # repeat for CCC1(O)C(=O)OCc2c1cc1n(c2=O)Cc2cc3c(N)cccc3nc2-1 (stereo not given)
Result :: 21

* * *

Below, each entry is listed with its recorded growth inhibition.
assay: NCI Yeast Anticancer Drug Screen. Data for the rad14 strain (AID 159);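 also: 0% = growth of vehicle-treated control cultures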; conditions: S. cerevisiae rad14 strain growth inhibition; at 11.0 µM; active compounds read high
This is part of a sample that, as a whole, favours compounds with a hit. Of some 79,000 tested, about 15% had one in any assay.
Give just the number in %; leave the unit off.

Take a look at these entries with their results.
CCCCCCNCCCNc1c2cc(OC)ccc2nc2cccc([N+](=O)[O-])c12	96
CCCCCCC1OCC(O)C(OCCCC)O1 (stereo not given)	-4
COc1ccccc1/C=C\C(=O)C1COCN1 (stereo not given)	9
Nc1cc2ccccc2cc1N	-13
NC(=S)N1N=C2c3ccccc3CC[C@H]2[C@@H]1c1ccc(Cl)cc1	-10

Query :: Suppose we examine the compound O=C(Cc1ccccc1)NN1C(=O)C(Cl)C1c1cc(Br)cc(Br)c1O (stereo not given) ; what growth inhibition value has been reported?
Result :: 85

Query :: # repeat for `O=C1C=CC(=Nc2cccc3c2-c2ccccc2C3=O)O1`
Result :: 94

Query :: # repeat for `O=C(c1ccccc1)[C@H]1Nc2ccc(Cl)cc2[C@H]2OCCC[C@@H]12`
Result :: -41

Query :: # repeat for `COc1ccc(/C=C2\SC(=S)N(/C=C3\C(=O)N(c4ccccc4)N=C3C)C2=O)cc1OC`
Result :: 26

Query :: # repeat for O=S(=O)(NC1CCCC(c2ccccc2)C1)c1ccccc1 (stereo not given)
Result :: 2

Query :: # repeat for `O=[N+]([O-])c1ccc(S(=O)(=O)Cc2ccccc2)c([N+](=O)[O-])c1`
Result :: 22

Query :: # repeat for CCC1(O)C(=O)OCc2c1cc1n(c2=O)Cc2cc3c(N)cccc3nc2-1 (stereo not given)
Result :: -19

Query :: # repeat for `CCC(=O)Nc1ccc(N=NN(C)C)cc1`
Result :: -1

Query :: # repeat for CC(=O)/C(=C\c1ccc(Cl)c(Cl)c1)C(=O)C(C)CN(C)C (stereo not given)
Result :: -8

Query :: # repeat for `CC(=O)NC(c1nc2cc(C)c(C)cc2[nH]1)c1nc2cc(C)c(C)cc2[nH]1`
Result :: -9

* * *

test: NCI Yeast Anticancer Drug Screen. Data for the mgt1 strain (AID 153); conditions: S. cerevisiae mgt1 mutant growth inhibition; at 100.0 µM
This is part of a sample that, as a whole, favours compounds with a hit. Of some 79,000 tested, about 15% had one in any assay. The source made the active and inactive calls. No stated cut-off is given here; in the data, active means growth inhibition above about 70%; inactive means the rest.
Answer with one of the outcomes given here: active, inactive

Take a look at these entries with their results.
O=[N+]([O-])c1cn[n+]([O-])c2ccccc12	active
Fc1ccc(Nc2ccc3ccccc3c2)cc1	active
COc1cc2oc3ccccc3c(=O)c2cc1CSc1ccccc1N	inactive
COc1cc(C2C3=C(COC3=O)Oc3cc4c(cc32)OCO4)cc(OC)c1O (stereo unspecified)	inactive
O=C(/C(=C/c1ccc(O)cc1)c1ccccc1)c1ccccc1	active

Query :: Hey, what did the test say about O=C1C2=C(c3ccccc31)C(c1ccccc1)N1C(=O)CSC1=N2 (stereo unspecified) ?
Result :: active

* * *

experiment: NCI Yeast Anticancer Drug Screen. Data for the sgs1 strain (AID 173);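 also: 0% = growth of vehicle-only control cultures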; settings: S. cerevisiae sgs1 mutant, at 100.0 µM
Compounds without any hit were thinned out: in the full panel of roughly 79,000, 15% have a hit. Calls of active or inactive are those of the source. No stated cut-off is given here; in the data, active means growth inhibition above about 70%; inactive means the rest.
Answer with one of the outcomes given here: active, inactive

Take a look at these entries with their results.
CCCCCCCCCCCCCCN	active
CC(=O)N1C=Cc2c(c(C)c3c([nH]c4ccccc43)c2C)C1	active
O=C1c2ccccc2N2OC3(N4CCCC4)CCCCC3C12c1ccccc1 (stereo not drawn)	active
CCCCCCNCCCNc1c2cc(OC)ccc2nc2cccc([N+](=O)[O-])c12	active
O=C(NNc1ccccc1)C(CCCCNS(=O)(=O)Cc1ccccc1)NS(=O)(=O)Cc1ccccc1 (stereo not drawn)	inactive

Then there is this compound:
Query :: Hey, what did the test say about `O=[N+]([O-])c1ccc(S(=O)(=O)Cc2ccccc2)c([N+](=O)[O-])c1` ?
Result :: active

* * *

Below, each entry is listed with its recorded growth inhibition.
experiment: NCI Yeast Anticancer Drug Screen. Data for the CLN2oe strain (AID 163);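 also: 0% = growth of vehicle-only control cultures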; details: S. cerevisiae CLN2oe strain, at 33.0 µM, active compounds read high
Compounds without any hit were thinned out: in the full panel of roughly 79,000, 15% have a hit.
Give just the number in %; leave the unit off.

Take a look at these entries with their results.
COc1c2c(c3c(c1CCC(=O)O)OC(C)(C)C=C3)OC(C)(C)C=C2	80
COc1cccc(/C=C2\S/C(=N/Nc3nc(-c4ccc([N+](=O)[O-])cc4)cs3)NC2=O)c1O	90
C=CCNC1=C2C[C@@H](C)C[C@H](OC)[C@H](O)[C@@H](C)/C=C(\C)[C@H](OC(N)=O)[C@@H](OC)/C=C\C=C(/C)C(=O)NC(=CC1=O)C2=O	96
CC(/C=C/c1ccc([N+](=O)[O-])o1)=N/N1CC(CN2CCOCC2)OC1=O (stereo unspecified)	44

Query :: Suppose we examine the molecule `O=C(CCCN1CCC(Nc2ccc(F)cc2)(c2nnnn2C2CCCCC2)CC1)c1ccc(F)cc1` ; what growth inhibition value has been reported?
Result :: 31

Query :: # repeat for c1ccc2c(c1)N=C1CCCC3CCCC123 (stereo unspecified)
Result :: 15

* * *

experiment: NCI Yeast Anticancer Drug Screen. Data for the rad14 strain (AID 159);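 also: 0% = growth of vehicle-treated control cultures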; conditions: S. cerevisiae rad14 strain growth inhibition; at 100.0 µM; active compounds read high
Compounds without any hit were thinned out: in the full panel of roughly 79,000, 15% have a hit.
growth inhibition vs 90%: at or above is fulfilled, below is not fulfilled.

Take a look at these entries with their results.
CC(C)C(=O)CC(Sc1ccc(N)cc1)c1ccccc1 (configuration not stated)	not fulfilled
CCCCCCCCSC1=C(Cl)C(=O)C(OC)=C(OC)C1=O	not fulfilled
CC1=CN2C(c3ccccc3)=NON(c3ccc(C)cn3)C2C=C1 (configuration not stated)	not fulfilled
COc1ccc2cc3c4cc5c(cc4cc[n+]3cc2c1OC)OCO5	fulfilled
N#CSCC1COc2ccccc2O1 (configuration not stated)	fulfilled
Nc1ccc(/C=C/c2ccc3cccnc3c2)cc1	not fulfilled
CCOP(=O)(OCC)/C(C#N)=C/c1cccc(Oc2ccccc2)c1	fulfilled
C/C1=C/C2OC(=O)C3(C)C2C(CC2(C)OC1=CC2=O)OC3(O)C(C)C (configuration not stated)	not fulfilled
CC1=NN(C(=O)CC(=O)NC(=O)/C=C\c2ccccc2)C(=O)C1N=Nc1ccc([N+](=O)[O-])cc1 (configuration not stated)	not fulfilled
O=C(/C(=C/c1ccc(O)cc1)c1ccccc1)c1ccccc1	fulfilled

Query :: Record `CC(=O)N1C=Cc2c(c(C)c3c([nH]c4ccccc43)c2C)C1` ; criterion: growth inhibition no lower than 90%. Met?
Result :: fulfilled

Query :: # repeat for O=C1NC(c2cccc(OCc3ccccc3)c2)Nc2ccccc21 (configuration not stated)
Result :: not fulfilled

// data source = PubChem BioAssay (NCI)
